- run_description: Cytotoxicity against human PC3 cells assessed as decrease in cell viability after 72 hrs by MTT assay
- Assay type: functional, cell-based
- experimental_conditions: PC-3, 72 h
Grouping by measured IC50 is done with the following cut points: low bin (below 2 µM), mid bin (2 µM to below 3 µM), high bin (3 µM or more)

[
  {
    "molecule": "CC1(C)OC2=C(C(=O)C(=O)c3ccccc32)[C@H](n2nnc(-c3ccccc3)c2I)[C@H]1Br",
    "assigned_class": "high bin"
  }
]

GET /class?item= O=C1C2=C(OC(Cn3nnc(-c4ccccc4)c3I)C2)C(=O)c2ccccc21 (stereo not given) high bin

CC1(C)CC(n2nnc(-c3ccccc3)c2I)C2=C(O1)C(=O)c1ccccc1C2=O (stereo not given) , same question. high bin

What about CC1(C)OC2=C(C(=O)C(=O)c3ccccc32)C1n1nncc1-c1ccccc1 (stereo not given) ? low bin

Also CC1(C)OC2=C(C(=O)c3ccccc3C2=O)C1n1nnc(-c2ccccc2)c1I (stereo not given) , if possible. high bin

----------
For each record, write down the corresponding pIC50.
- run_description: Cytotoxicity against human MDA-MB-435 cells assessed as decrease in cell viability after 72 hrs by MTT assay
- Type: functional, cell-based
- experimental_conditions: MDA-MB-435, 72 h
Give bare numbers, as −log10 of the molar value.

[
  {
    "compound": "O=C1C(=O)c2ccccc2C2=C1CC(Cn1nnc(-c3ccccc3)c1I)O2 (stereo not given)",
    "measured_metric": "pIC50",
    "result_value": 5.25
  }
]

Fill in pIC50 for each of the 3 compounds listed.
1. CC1(C)OC2=C(C(=O)c3ccccc3C2=O)C1n1nnc(-c2ccccc2)c1I (stereo not given)
2. O=C1C(=O)c2ccccc2C2=C1CC(Cn1cc(-c3ccccc3)nn1)O2 (stereo not given)
3. CC1(C)OC2=C(C(=O)C(=O)c3ccccc32)C1n1nnc(-c2ccccc2)c1I (stereo not given)

1. 5.24
2. 5.51
3. 5.52

----------
- run_description: Cytotoxicity against human MDA-MB-435 cells assessed as decrease in cell viability after 72 hrs by MTT assay
- Format: functional, cell-based
- experimental_conditions: MDA-MB-435, 72 h
Kindly supply the reported pIC50 values for the records listed here.
One number for each entry, as −log10 of the molar value.

// input: 6 compounds below; output: pIC50 for each
1. O=C1C(=O)c2ccccc2C2=C1CC(Cn1cc(C3(O)CCCCC3)nn1)O2 (stereo not given)
2. CCCCCCc1cn(CC2CC3=C(O2)c2ccccc2C(=O)C3=O)nn1 (stereo not given)
3. CC1(C)OC2=C(C(=O)C(=O)c3ccccc32)[C@H](n2nncc2-c2ccccc2)[C@H]1Br
4. O=C1C(=O)c2ccccc2C2=C1CC(Cn1nncc1-c1ccccc1)O2 (stereo not given)
5. CC1(C)OC2=C(C(=O)C(=O)c3ccccc32)C1n1nncc1-c1ccccc1 (stereo not given)
6. CC1(C)OC2=C(C(=O)c3ccccc3C2=O)C1n1nncc1-c1ccccc1 (stereo not given)

1: 4.99; 2: 5.72; 3: 6.11; 4: 5.21; 5: 5.76; 6: 5.43

----------
- run_description: Cytotoxicity against human HL60 cells assessed as decrease in cell viability after 72 hrs by MTT assay
- Assay type: functional, cell-based
- experimental_conditions: HL-60, 72 h
measured_metric: pIC50
Give bare numbers, as −log10 of the molar value.

Consider the following illustrative entries.
[
  {
    "compound": "O=C1C(=O)c2ccccc2C2=C1CC(Cn1cc(-c3ccccc3)nn1)O2 (stereo not given)",
    "result_value": 5.45
  },
  {
    "compound": "O=C1C(=O)c2ccccc2C2=C1CC(Cn1nnc(-c3ccccc3)c1I)O2 (stereo not given)",
    "result_value": 5.62
  }
]

Now for the compound whose pIC50 we want.
So what does the record say about pIC50 for CCCCCCc1cn(CC2CC3=C(O2)c2ccccc2C(=O)C3=O)nn1 (stereo not given) ? 5.69
